- Method Notes: Absorption coefficient (absorbance of 0.001% solution in tetrahydrofuran)
- Type: physicochemical
- Test Parameters: 0.001% (wt/vol) in tetrahydrofuran; from 280 nm to 400 nm
- Experimental: A 0.001% (wt/vol) solution of each of the compounds 1, 2, 4, 6, 8, 9, 11, 12, 13, 15, 16, D-1, D-3, D-4, D-7, D-8, D-9, D-12, D-14, D-15, D-20, C-1, and C-2 in tetrahydrofuran was prepared, and its absorbance was measured with a spectrophotometer (manufactured by Hitachi High-Technologies Corporation, trade name: “U-3900H”). An absorption maximum wavelength (Amax) at a wavelength of from 280 nm to 400 nm was read from an absorption spectrum obtained with the spectrophotometer.
Measurement Label: Λ max (absorption maximum wavelength) (nm)

CCCC1(CCC)c2ccccc2-c2ccc(/C(C)=N/OC(C)=O)cc21	315.0
CCCC1(CCC)c2cc(C(=O)c3ccc([N+](=O)[O-])cc3)ccc2-c2ccc(C(=NOC(C)=O)C(C)C)cc21 (mixture of isomers)	335.5
CCCC1(CCC)c2cc(C(=O)c3ccc([N+](=O)[O-])cc3)ccc2-c2ccc(C(C)=NOC(C)=O)cc21	341.5
CCCC1(CCC)c2cc(C(C)=NOC(C)=O)ccc2-c2ccc([N+](=O)[O-])cc21	345.5

====

- Method Notes: Absorption coefficient (absorbance of 0.001% solution in tetrahydrofuran)
- Assay type: physicochemical
- Test Parameters: 0.001% (wt/vol) solution in tetrahydrofuran
Measurement Label: Absorption coefficient at Λ max (mL/mg/cm)

CCCC1(CCC)c2cc(C(=O)/C(C)=N/OC(C)=O)ccc2-c2ccc(C(=O)c3ccc([N+](=O)[O-])cc3)cc21 [Compound D-9]	63.7

(1) CCCCCCC1(CCCCCC)c2cc(C(=O)c3cccs3)ccc2-c2ccc(C(CC(C)N(OC(C)=O)C(C)=O)=NOC(C)=O)cc21 (racemic) [Compound 11]
(2) CCCCCCC1(CCCCCC)c2cc(C(=O)C(=NOC(C)=O)c3cc(C)ccc3C)ccc2-c2ccc(C(=O)c3ccc([N+](=O)[O-])cc3)cc21 [Compound 13]
(3) CCCC1(CCC)c2cc(C(=O)c3ccccc3C)ccc2-c2ccc(/C(C)=N/OC(C)=O)cc21 [Compound 4]
Request: Order the 3 compounds from highest to lowest Absorption coefficient at Λ max. Kindly provide the labels arranged according to the requested ordering.
Result: 3, 1, 2
(3: 85.7 mL/mg/cm, 1: 55.0 mL/mg/cm, 2: 36.3 mL/mg/cm)

(1) CCCC1(CCC)c2cc(C(=O)c3ccc([N+](=O)[O-])cc3)ccc2-c2ccc(C(C)=NOC(C)=O)cc21 [Compound D-7]
(2) CC(=O)ON=C(C)c1ccc2c(c1)Cc1ccccc1-2 [Compound 16]
(3) CCn1c2ccc(/C(=N\OC(C)=O)c3ccc(OC(C)COC)cc3C)cc2c2cc([N+](=O)[O-])ccc21 (stereo not shown) [Compound C-2, reference compound]
Request: Write the entries in order, lowest recorded Absorption coefficient at Λ max first. Kindly provide the labels arranged according to the requested ordering.
Result: 3, 1, 2

====

- Method Notes: Absorption coefficient (absorbance of 0.001% solution in tetrahydrofuran)
- Assay type: physicochemical
- Test Parameters: 0.001% (wt/vol) solution in tetrahydrofuran
Measurement Label: Absorption coefficient at Λ max (mL/mg/cm)

CCCC1(CCC)c2cc(C(=NOC(C)=O)c3ccccc3)ccc2-c2ccc([N+](=O)[O-])cc21 [Compound D-1]	54.1
CCCC1(CCC)c2cc(C(C)=NOC(C)=O)ccc2-c2ccc([N+](=O)[O-])cc21 [Compound D-3]	67.8

(P) CCCC1(CCC)c2cc(C(CCCSc3ccc(Cl)cc3)=NOC(C)=O)ccc2-c2ccc([N+](=O)[O-])cc21 [Compound D-14]
(Q) CCn1c2ccc(C(=O)c3ccccc3C)cc2c2cc(/C(C)=N/OC(C)=O)ccc21 [Compound C-1, reference compound]
Request: Given the listed records, identify the one among P and Q with higher Absorption coefficient at Λ max. // return label of chosen record
Result: Q
